Each record here notes measured pEC50.
Test system: Human immunodeficiency virus 1
PROCEDURE SUMMARY: Effective concentration required to inhibit HIV-1/138K induced cytopathicity in human CEM cell line
Format: functional, organism-based
CONDITION SET: Human immunodeficiency virus 1, CCRF-CEM
pEC50: −log10 of the molar value.

Cc1cn([C@@H]2O[C@H](CO[Si](C)(C)C(C)(C)C)[C@@]3(OS(=O)(=O)C=C3N)[C@H]2O[Si](C)(C)C(C)(C)C)c(=O)n(CC2CC2)c1=O < 4.30
Cc1cn([C@@H]2O[C@H](CO[Si](C)(C)C(C)(C)C)[C@@]3(OS(=O)(=O)C=C3N)[C@H]2O[Si](C)(C)C(C)(C)C)c(=O)n(CCCN(CC(=O)O)CC(=O)O)c1=O < 4.30
Cc1cn([C@@H]2O[C@H](CO[Si](C)(C)C(C)(C)C)[C@@]3(OS(=O)(=O)C=C3N)[C@H]2O[Si](C)(C)C(C)(C)C)c(=O)n(Cc2ccccc2)c1=O < 4.30

Prompt line: I'd like to know its pEC50. The compound in question is Cc1cn([C@@H]2O[C@H](CO[Si](C)(C)C(C)(C)C)[C@@]3(OS(=O)(=O)C=C3N)[C@H]2O[Si](C)(C)C(C)(C)C)c(=O)n(CCBr)c1=O
Response line: < 4.30

Prompt line: I'd like to know its pEC50. The compound in question is Cc1cn([C@@H]2O[C@H](CO[Si](C)(C)C(C)(C)C)[C@@]3(OS(=O)(=O)C=C3N)[C@H]2O[Si](C)(C)C(C)(C)C)c(=O)n(CCC[N+](C)(C)C)c1=O.[I-]
Response line: < 4.60

Prompt line: I'd like to know its pEC50. The compound in question is Cc1cn([C@@H]2O[C@H](CO[Si](C)(C)C(C)(C)C)[C@@]3(OS(=O)(=O)C=C3N)[C@H]2O[Si](C)(C)C(C)(C)C)c(=O)n(CCc2ccccc2)c1=O
Response line: < 5.00

Prompt line: I'd like to know its pEC50. The compound in question is CNC(=O)CCCCn1c(=O)c(C)cn([C@@H]2O[C@H](CO[Si](C)(C)C(C)(C)C)[C@@]3(OS(=O)(=O)C=C3N)[C@H]2O[Si](C)(C)C(C)(C)C)c1=O
Response line: ≤ 5.70

====

Each record here notes measured pEC50.
System: Human immunodeficiency virus 2
PROCEDURE SUMMARY: Effective concentration required to inhibit HIV-2 induced cytopathicity in human MT-4 cell line
Format: functional, organism-based
CONDITION SET: Human immunodeficiency virus 2, MT4
pEC50: −log10 of the molar value.

Cc1cn([C@@H]2O[C@H](CO[Si](C)(C)C(C)(C)C)[C@@]3(OS(=O)(=O)C=C3N)[C@H]2O[Si](C)(C)C(C)(C)C)c(=O)n(CCCN(C)C)c1=O < 5.00

Prompt line: I'd like to know its pEC50. The compound in question is Cc1cn([C@@H]2O[C@H](CO[Si](C)(C)C(C)(C)C)[C@@]3(OS(=O)(=O)C=C3N)[C@H]2O[Si](C)(C)C(C)(C)C)c(=O)n(CCCO)c1=O
Response line: < 5.70

Prompt line: I'd like to know its pEC50. The compound in question is Cc1cn([C@@H]2O[C@H](CO[Si](C)(C)C(C)(C)C)[C@@]3(OS(=O)(=O)C=C3N)[C@H]2O[Si](C)(C)C(C)(C)C)c(=O)n(CCO)c1=O
Response line: < 5.00
